Protocol Details: Apparent oral clearance in Sprague-Dawley rat at 20 mg/kg, po by UHPLC-MS analysis
Format: ADME, organism-based
Condition Description: in vivo
Measured Metric: CL/F (mL/min)
Reply with just the number (in mL/min).

Request: May I ask what CL/F has been recorded for `CC(=O)O[C@H]1C(=O)[C@@]2(C)[C@H]([C@H](OC(=O)c3ccccc3)[C@]3(O)C[C@H](OC(=O)[C@H](O)[C@@H](NC(=O)c4ccccc4)c4ccccc4)C(C)=C1C3(C)C)[C@]1(OC(C)=O)CO[C@@H]1C[C@@H]2O` ?
Response: 546

----------
Protocol Details: AUC (0 to t) in Sprague-Dawley rat at 5 mg/kg, iv by UHPLC-MS analysis
Assay type: ADME, organism-based
Set-up: dose 5 mg/kg
Condition Description: in vivo
Measured Metric: AUC(0-t) (ng·h/mL)
Reply with just the number (in ng·h/mL).

Request: May I ask what AUC(0-t) has been recorded for `CC(=O)O[C@H]1C(=O)[C@@]2(C)[C@H]([C@H](OC(=O)c3ccccc3)[C@]3(O)C[C@H](OC(=O)[C@H](O)[C@@H](NC(=O)c4ccccc4)c4ccccc4)C(C)=C1C3(C)C)[C@]1(OC(C)=O)CO[C@@H]1C[C@@H]2O` ?
Response: 1730

----------
Protocol Details: Oral bioavailability in Sprague-Dawley rat at 20 mg/kg by UHPLC-MS analysis
Format: ADME, organism-based
Condition Description: in vivo
Measured Metric: bioavailability (%)
Reply with just the number (in %).

Request: May I ask what bioavailability has been recorded for CC(=O)O[C@H]1C(=O)[C@@]2(C)[C@H]([C@H](OC(=O)c3ccccc3)[C@]3(O)C[C@H](OC(=O)[C@H](O)[C@@H](NC(=O)c4ccccc4)c4ccccc4)C(C)=C1C3(C)C)[C@]1(OC(C)=O)CO[C@@H]1C[C@@H]2O [PACLITAXEL] ?
Response: 8.8

----------
Consider the following molecules and their measured logP readings.
Protocol Details: n-Octanol/water partition coefficient, logP of the compound by UHPLC analysis
Assay type: physicochemical
Would you mind answering with just the numeric figure?

- Molecule: "COc1cc2c(cc1OC)CN(CCNC(=O)c1ccc(C)c(Nc3nccc(-c4ccco4)n3)c1)CC2"
  logP: 2.13
- Molecule: "COc1cc2c(cc1OC)CN(CCNC(=O)c1ccc(C)c(Nc3nccc(-c4ccccc4)n3)c1)CC2"
  logP: 1.9

Request: May I ask what logP has been recorded for `COc1cc2c(cc1OC)CN(CCc1ccc(NC(=O)c3cc(=O)c4c(O)cccc4o3)cc1)CC2` ?
Response: 1.78

Request: May I ask what logP has been recorded for `COc1cc2c(cc1OC)CN(CCc1ccc(NC(=O)c3ccc(C)c(Nc4nccc(-c5cccnc5)n4)c3)cc1)CC2` ?
Response: 1.86

Request: May I ask what logP has been recorded for `COc1cc2c(cc1OC)CN(CCc1ccc(NC(=O)c3ccc(C)c(Nc4nccc(-c5ccccn5)n4)c3)cc1)CC2` ?
Response: 1.73

Request: May I ask what logP has been recorded for `COc1cc2c(cc1OC)CN(CCc1ccc(NC(=O)c3ccc(C)c(Nc4nccc(-c5ccco5)n4)c3)cc1)CC2` ?
Response: 1.7

Request: May I ask what logP has been recorded for `COc1cc2c(cc1OC)CN(CCNC(=O)c1ccc(C)c(Nc3nccc(-c4ccc(F)cc4)n3)c1)CC2` ?
Response: 2.04

Request: May I ask what logP has been recorded for `COc1cc2c(cc1OC)CN(CCc1ccc(NC(=O)c3ccc(C)c(Nc4nccc(-c5ccc(F)cc5)n4)c3)cc1)CC2` ?
Response: 1.19

Request: May I ask what logP has been recorded for `COc1ccc(-c2ccnc(Nc3cc(C(=O)Nc4ccc(CCN5CCc6cc(OC)c(OC)cc6C5)cc4)ccc3C)n2)cc1` ?
Response: 1.35

Request: May I ask what logP has been recorded for `COc1cc2c(cc1OC)CN(CCc1ccc(NC(=O)c3cc(=O)c4c(OC)cccc4o3)cc1)CC2` ?
Response: 0.76

Request: May I ask what logP has been recorded for `COc1cc2c(cc1OC)CN(CCNC(=O)c1ccc(C)c(Nc3nccc(-c4cccs4)n3)c1)CC2` ?
Response: 1.94

Request: May I ask what logP has been recorded for `COc1cc2c(cc1OC)CN(CCNC(=O)c1ccc(C)c(Nc3nccc(-c4ccccc4O)n3)c1)CC2` ?
Response: 2.31

Request: May I ask what logP has been recorded for `COc1cc2c(cc1OC)CN(CCc1ccc(NC(=O)c3ccc(C)c(Nc4nccc(-c5cccs5)n4)c3)cc1)CC2` ?
Response: 1.48

Cited source for all entries: ChEMBL document CHEMBL4808186
